system: Vaccinia virus; experiment: Antiviral activity against Vaccinia virus in human HEL cells assessed as reduction of virus-induced cytopathogenicity; type: functional; conditions: Orthopoxvirus vaccinia
MIC reference

1. Cn1c(COc2ccc(NC(=S)Nc3ccccc3)cc2)n[nH]c1=S :: > 80 µg/mL

Now let's try a different one.
Given the molecule `Nc1nc2c(ncn2COCCO)c(=O)[nH]1` , what is its reported MIC? > 400 µg/mL

* * *

MIC reference
tested on: Vaccinia virus; assay: Antiviral activity against Vaccinia virus in human HEL cells assessed as reduction of virus-induced cytopathogenicity; type: functional; settings: Orthopoxvirus vaccinia

1) C=CCNC(=S)Nc1ccc(-c2n[nH]c(=S)n2CC=C)cc1 :: > 80 µg/mL
2) CCn1c(COc2ccc(N)cc2)n[nH]c1=S :: 240 µg/mL
3) CCCCCCNC(=S)Nc1ccc(-c2n[nH]c(=S)n2-c2ccccc2)cc1 :: > 16 µg/mL
4) C=CCn1c(COc2ccc(N)cc2)n[nH]c1=S :: > 400 µg/mL

Recorded MIC for `C=CCNC(=S)Nc1ccc(OCc2n[nH]c(=S)n2C)cc1` with Vaccinia virus, please? > 400 µg/mL

Another compound to check: `C=CCn1c(COc2ccc(NC(=S)NC)cc2)n[nH]c1=S` > 400 µg/mL

* * *

test system: Vaccinia virus; assay: Antiviral activity against Vaccinia virus in human E6SM cells assessed as reduction of virus-induced cytopathogenicity; assay type: functional; details: Orthopoxvirus vaccinia
assay-metric: MIC

Field: example entries. Status: answers known.
1. CNC(=S)Nc1ccc(-c2nnc(SCc3ccccc3)n2C)cc1 :: > 16 µg/mL
2. C=CCNC(=S)Nc1ccc(-c2n[nH]c(=S)n2CCCCCC)cc1 :: > 16 µg/mL
3. C=CCNC(=S)Nc1ccc(-c2n[nH]c(=S)n2CCc2ccccc2)cc1 :: > 80 µg/mL
4. C=CCNC(=S)Nc1ccc(-c2n[nH]c(=S)n2CC=C)cc1 :: > 400 µg/mL
5. C=CCn1c(COc2ccc(NC(=S)NCC)cc2)n[nH]c1=S :: > 400 µg/mL

Now let's try a different one.
Given the compound `C=CCn1c(COc2ccc(NC(=S)Nc3ccccc3)cc2)n[nH]c1=S` , what is its reported MIC? > 80 µg/mL

* * *

system: Vaccinia virus; test: Antiviral activity against Vaccinia virus in human HEL cells assessed as reduction of virus-induced cytopathogenicity; format: functional; conditions: Orthopoxvirus vaccinia
assay-metric: MIC

Given the compound `C=CCNC(=S)Nc1ccc(-c2n[nH]c(=S)n2CCCCCC)cc1` , what is its reported MIC? > 16 µg/mL

Another compound to check: `CCNC(=S)Nc1ccc(OCc2n[nH]c(=S)n2-c2ccccc2)cc1` > 400 µg/mL

Another compound to check: `S=C(Nc1ccccc1)Nc1ccc(-c2n[nH]c(=S)n2-c2ccccc2)cc1` > 80 µg/mL

Another compound to check: `CNC(=S)Nc1ccc(-c2nnc(SCc3ccccc3)n2C)cc1` > 16 µg/mL

Another compound to check: `C=CCNC(=S)Nc1ccc(-c2nnc(SCc3ccc(Cl)cc3Cl)n2C)cc1` > 16 µg/mL

Another compound to check: `C=CCn1c(COc2ccc(NC(=S)Nc3ccccc3)cc2)n[nH]c1=S` > 80 µg/mL

* * *

MIC reference
test system: Vaccinia virus; test: Antiviral activity against Vaccinia virus in human HEL cells assessed as reduction of virus-induced cytopathogenicity; assay type: functional; conditions: Orthopoxvirus vaccinia

Field: example entries. Status: answers known.
1) C=CCNC(=S)Nc1ccc(-c2nnc(SCc3ccc(Cl)cc3Cl)n2-c2ccccc2)cc1 :: > 16 µg/mL
2) CCNC(=S)Nc1ccc(-c2n[nH]c(=S)n2-c2ccccc2)cc1 :: > 3.2 µg/mL
3) Nc1nc2c(ncn2COC(CO)CO)c(=O)[nH]1 :: > 100 µg/mL

Given the compound `S=C(Nc1ccc(Cl)cc1)Nc1ccc(-c2n[nH]c(=S)n2-c2ccccc2)cc1` , what is its reported MIC? > 16 µg/mL

Another compound to check: `CCCCCCNC(=S)Nc1ccc(-c2n[nH]c(=S)n2CC)cc1` > 80 µg/mL

Another compound to check: `Cn1c(-c2ccc(NC(=S)Nc3ccccc3)cc2)n[nH]c1=S` > 80 µg/mL

* * *

system: Vaccinia virus; test: Antiviral activity against Vaccinia virus in human HEL cells assessed as reduction of virus-induced cytopathogenicity; format: functional; settings: Orthopoxvirus vaccinia
MIC reference

Field: example entries. Status: answers known.
1. CCNC(=S)Nc1ccc(OCc2n[nH]c(=S)n2C)cc1 :: > 400 µg/mL
2. CCNC(=S)Nc1ccc(OCc2n[nH]c(=S)n2CC)cc1 :: 240 µg/mL

Now let's try a different one.
Given the compound `S=C(Nc1ccccc1)Nc1ccc(OCc2n[nH]c(=S)n2-c2ccccc2)cc1` , what is its reported MIC? > 80 µg/mL
